tested on: primary rat mixed cortical cells; experiment: In vitro myelination assay (MBP positive myelin strands, fold myelin pixels above background); assay type: cell-based; conditions: Rattus norvegicus, 10.0 μM compound; read-out: Fold myelin pixels above background relative to baseline of no added compound
observed_property: fold induction at 10 µM

// below: answered compounds
1. Cc1cc(Nc2ncn(-c3ccccc3)n2)c(F)c(N2CCN(C3COC3)CC2)c1 [Compound 1085] : 10 to 100
2. Cc1cc(Nc2ncn(-c3cc(F)cc(F)c3)n2)cc(N2CCC[C@H]2CN2CCOCC2)c1 (single isomer, unassigned) [Compound 919] : ≤ 1
3. Fc1cc(-n2cnc(Nc3cc(Cl)cc(N4CC(N5CCOCC5)C4)c3)n2)ccn1 [Compound 819] : 1 to 10
4. [2H]C1([2H])N(CC)C([2H])([2H])C([2H])([2H])N(c2cc(C)cc(Nc3ncn(-c4cc(F)cc(F)c4)n3)c2)C1([2H])[2H] [Compound 947] : ≤ 1
5. Cc1cc(Nc2ncn(-c3cc(F)cc(F)c3)n2)nc(OCC2CC2)c1 [Compound 980] : 1 to 10

q: For Cc1cc(Nc2ccn(C)n2)cc(Nc2ncn(-c3ccccc3)n2)c1 [Compound 828] , what is its reported fold induction at 10 µM?
a: ≤ 1

q: For CCN1CC2CC1CN2c1cc(C)cc(Nc2ncn(-c3cc(F)cc(F)c3)n2)c1 (stereo not shown) [Compound 996] , what is its reported fold induction at 10 µM?
a: ≤ 1

q: For Cc1cc(Nc2ncn(-c3cc(F)cc(F)c3)n2)cc(N2CCCC3COCC32)c1 (stereo not shown) [Compound 981] , what is its reported fold induction at 10 µM?
a: 10 to 100

q: For Cc1cc(Nc2ncn(-c3cc(F)cc(F)c3)n2)cc(N2CCCC(N3CCOCC3)C2)c1 (stereo not shown) [Compound 911] , what is its reported fold induction at 10 µM?
a: 1 to 10

q: For Cc1cc(Nc2ncn(-c3cc(F)cc(F)c3)n2)cc(N2CC(C)(C#N)C2)c1 [Compound 1076] , what is its reported fold induction at 10 µM?
a: ≤ 1

###

// reported fold induction at 1 µM per item
system: primary rat mixed cortical cells; test: In vitro myelination assay (MBP positive myelin strands, fold myelin pixels above background); format: cell-based; details: Rattus norvegicus, 1.0 μM compound, relative to baseline of no added compound; read-out: Fold myelin pixels above background

// below: answered molecules
1. COc1cc(Nc2ncn(-c3cc(F)cc(F)c3)n2)nc(N2CCN(C3COC3)CC2)c1 [Compound 599] : 10 to 100
2. Cc1cc(Nc2ncn(-c3ccnc(F)c3)n2)cc(N2CCOCC2)c1 [Compound 403] : 1000 to 10000
3. Cc1cc(Nc2ncn(-c3ccccc3)n2)cc(C2CCN(CC3(C)COC3)CC2)c1 [Compound 483] : ≤ 1
4. OC1(c2cc(F)cc(Nc3ncn(-c4cc(F)cc(F)c4)n3)c2)COC1 [Compound 775] : 1 to 10
5. Cc1cc(Nc2ncn(-c3cccnc3)n2)cc(N2CCN(C3(C)COC3)CC2)c1 [Compound 585] : 10 to 100
6. Cc1cc(Nc2ncn(-c3cc(F)cc(F)c3)n2)cc(N2CCCN(C3COC3)CC2)c1 [Compound 637] : 100 to 1000
7. Cc1cc(Nc2ncn(-c3cc(F)cc(F)c3)n2)cc(C2CCCNC2)c1 (stereo not drawn) [Compound 429] : 1000 to 10000
8. Fc1cc(Cl)cc(-n2cnc(Nc3cc(C4CC4)cc(N4CCN(C5COC5)CC4)c3)n2)c1 [Compound 400] : 1000 to 10000
9. CN1CCN(c2cc(Nc3ncn(-c4ccc(F)c(F)c4)n3)cc(C(F)(F)F)c2)CC1 [Compound 412] : 1000 to 10000
10. N#Cc1cc(Nc2ncn(-c3ccc(F)c(F)c3)n2)cc(N2CCN(C3COC3)CC2)c1 [Compound 656] : 1 to 10

q: For Fc1cc(F)cc(-n2cnc(Nc3cc(C4CC4)nc(N4CCOCC4)c3)n2)c1 [Compound 405] , what is its reported fold induction at 1 µM?
a: 100 to 1000

q: For Cc1cc(Nc2ncn(-c3cc(F)cc(F)c3)n2)cc(N2CC(N3CCO[C@@H](C)C3)C2)c1 [Compound 730] , what is its reported fold induction at 1 µM?
a: 10 to 100

q: For Cc1cc(Nc2ncn(-c3cc(F)cc(F)c3)n2)cc([C@]2(O)CCN(C3COC3)C2)c1 [Compound 487] , what is its reported fold induction at 1 µM?
a: 100 to 1000

q: For CN1CCN(c2cc(Nc3ncn(-c4ccccc4)n3)cc(C(F)(F)F)c2)CC1 [Compound 486] , what is its reported fold induction at 1 µM?
a: 100 to 1000

q: For COCC1CCN(c2cc(C(F)F)cc(Nc3ncn(-c4cccc(C(F)F)c4)n3)n2)CC1 [Compound 645] , what is its reported fold induction at 1 µM?
a: 1 to 10

###

Test system: primary rat mixed cortical cells
Assay: In vitro myelination assay (MBP positive myelin strands, fold myelin pixels above background)
Type: cell-based
Details: Rattus norvegicus, 10.0 μM compound; read-out: Fold myelin pixels above background relative to baseline of no added compound
Text: In Vitro Myelination Assay Compounds were screened for their ability to induce myelination using a primary rat mixed cortical cell culture assay, which contains neurons, oligodendrocyte precursor cells, oligodendrocytes, astrocytes and microglia. […] The myelin strands were quantitated using a custom created myelin detection software program. […]
// reported fold induction at 10 µM per item

// below: answered compounds
1. Cc1cc(Nc2ncn(-c3cnccn3)n2)cc(N2CC(N3CCCOCC3)C2)c1 [Compound 825] : 10 to 100
2. COCC1CCN(c2cc(C(F)F)cc(Nc3ncn(-c4cccc(C(F)(F)F)c4)n3)n2)CC1 [Compound 795] : 1 to 10
3. Cc1cc(Nc2ncn(-c3cc(F)cc(F)c3)n2)cc(N2CC(N3C[C@@H](C)O[C@H](C)C3)C2)c1 [Compound 857] : 10 to 100
4. Cc1cc(Nc2ncn(-c3cc(F)cc(F)c3)n2)cc(N2CC(CN3CCOCC3)C2)c1 [Compound 866] : 10 to 100

// next entry
q: For Cc1cc(Nc2ncn(-c3ccccc3)n2)cc(Nc2ncco2)c1 [Compound 838] , what is its reported fold induction at 10 µM?
a: ≤ 1

###

// reported fold induction at 10 µM per item
test system: primary rat mixed cortical cells; assay: In vitro myelination assay (MBP positive myelin strands, fold myelin pixels above background); assay type: cell-based; conditions: Rattus norvegicus, 10.0 μM compound, relative to baseline of no added compound; read-out: Fold myelin pixels above background, 10.0 μM

1. COc1nccc(-n2cnc(Nc3cc(C4CC4)cc(N4CCN(C5COC5)CC4)c3)n2)n1 : 100 to 1000
2. Cc1cc(Nc2ncn(-c3ccccc3)n2)cc(N2CCNC([C@](C)(O)C(C)C)C2)n1 (stereo partly shown) : ≤ 1
3. Brc1cc(Nc2ncn(-c3ccccc3)n2)cc(N2CCOCC2)c1 : 1000 to 10000

// next entry
q: For "Cc1cc(Nc2ncn(-c3ccccc3)n2)cc(N2CCS(=O)(=O)CC2)c1" , what is its reported fold induction at 10 µM?
a: 100 to 1000

###

system: primary rat mixed cortical cells; assay: In vitro myelination assay (MBP positive myelin strands, fold myelin pixels above background); type: cell-based; conditions: Rattus norvegicus, 10.0 μM compound, relative to baseline of no added compound; read-out: Fold myelin pixels above background, 10.0 μM
// reported fold induction at 10 µM per item

q: For Cc1cc(Nc2ncn(-c3ccccc3)n2)cc(NC2CCN(C3COC3)C2)c1 (stereo not shown) [Compound 309] , what is its reported fold induction at 10 µM?
a: ≤ 1

q: For Cc1cc(Nc2ncn(-c3ccncc3)n2)cc(N2CCOCC2)c1 [Compound 84] , what is its reported fold induction at 10 µM?
a: 10 to 100

q: For CCc1cc(Nc2ncn(-c3cc(F)cc(F)c3)n2)cc(N2CCN(C3COC3)CC2)c1 [Compound 107] , what is its reported fold induction at 10 µM?
a: 1000 to 10000

q: For COCCN(C)c1cc(F)cc(-n2cnc(Nc3cc(C)cc(N4CCN(C5COC5)CC4)c3)n2)c1 [Compound 373] , what is its reported fold induction at 10 µM?
a: 100 to 1000

q: For CC(C)(C)c1cc(Nc2ncn(-c3cccc(F)c3)n2)cc(N2CCN(C3COC3)CC2)c1 [Compound 97] , what is its reported fold induction at 10 µM?
a: 100 to 1000

q: For Cc1cc(Nc2ncn(-c3cc(F)cc(F)c3)n2)cc(N2C[C@@H]3C[C@H]2CN3C2COC2)c1 [Compound 34] , what is its reported fold induction at 10 µM?
a: ≤ 1

q: For Cc1cc(Nc2ncn(-c3cc(F)cc(F)c3)n2)cc(C2CCN(C3COC3)C2)c1 (stereo not shown) [Compound 25] , what is its reported fold induction at 10 µM?
a: 1000 to 10000

q: For CCN(C)Cc1cc(F)cc(-n2cnc(Nc3cc(C)cc(N4CCN(C5COC5)CC4)c3)n2)c1 [Compound 187] , what is its reported fold induction at 10 µM?
a: ≤ 1

q: For Cc1cc(Nc2ncn(-c3ccc(F)c(F)c3)n2)cc(O[C@@H]2CCN(C3COC3)C2)c1 [Compound 46] , what is its reported fold induction at 10 µM?
a: 1 to 10

q: For O=c1cc(-n2cnc(Nc3cc(C(F)F)cc(N4CCN(C5COC5)CC4)c3)n2)cc[nH]1 [Compound 163] , what is its reported fold induction at 10 µM?
a: ≤ 1

q: For CCCc1cc(Nc2ncn(-c3cnccn3)n2)cc(N2CCN(C3COC3)CC2)c1 [Compound 236] , what is its reported fold induction at 10 µM?
a: ≤ 1
